- measured-on: HLA-A*69:01
- procedure-text: IEDB peptide-MHC binding, purified MHC/competitive/fluorescence; filed as Kd, often an IC50 or EC50 that approximates it; bounds were set here for any values at or beyond the usual limits of such assays
- measurement-parameters: source organism: Mus musculus

seq-text: VLWKSYPLV
Kd: ≥ 20 µM

###

pKd values, listed per item
- measured-on: HLA-A*26:01
- procedure-text: IEDB peptide-MHC binding, purified MHC/competitive/radioactivity; filed as Kd, often an IC50 or EC50 that approximates it; bounds were set here for any values at or beyond the usual limits of such assays
- measurement-parameters: source organism: SARS coronavirus Tor2
pKd: −log10 of the molar value.

seq-text: FWITAIYVF
inequality-symbol: =
pKd: 6.26
//
seq-text: LMANLAPHL
inequality-symbol: ≤
pKd: 4.11
//
seq-text: AWEILKFLI
inequality-symbol: ≤
pKd: 4.24
//
seq-text: ESVKTQFNY
inequality-symbol: =
pKd: 6.04
//
seq-text: MWLSYFVASF
inequality-symbol: =
pKd: 6.85
//
seq-text: LTALRLCAY
inequality-symbol: =
pKd: 6.02
//
seq-text: ASEFSSLPSY
inequality-symbol: =
pKd: 4.92
//
seq-text: AYNVVNKGHF
inequality-symbol: ≤
pKd: 4.43
//
seq-text: FIDTIKSLDY
inequality-symbol: ≤
pKd: 4.60
//
seq-text: GLAAEWVLAY
inequality-symbol: =
pKd: 6.44
//
seq-text: STSQKSIVAY
inequality-symbol: =
pKd: 6.10
//
seq-text: GTDSGFAAY
inequality-symbol: =
pKd: 5.63
//
seq-text: LYKLMGHFSW
inequality-symbol: ≤
pKd: 4.70

###

- measured-on: HLA-A*02:01
- procedure-text: IEDB peptide-MHC binding, purified MHC/competitive/fluorescence; filed as Kd, often an IC50 or EC50 that approximates it; bounds were set here for any values at or beyond the usual limits of such assays
- measurement-parameters: source organism: Entamoeba histolytica HM-1:IMSS
pKd: −log10 of the molar value.
pKd values, listed per item
value-type: pKd

seq-text: EVRKAIEFV
recorded-result: ≤ 4.70

seq-text: WAKLLKQKW
recorded-result: ≤ 4.70

###

Kd values, listed per item
- measured-on: HLA-A*02:16
- procedure-text: IEDB peptide-MHC binding, purified MHC/direct/fluorescence; filed as Kd, often an IC50 or EC50 that approximates it; bounds were set here for any values at or beyond the usual limits of such assays
- measurement-parameters: source organism: Zaire ebolavirus

seq-text: RDRFKRTSF
Kd: ≥ 20 µM
//
seq-text: KEGKLQCRI
Kd: ≥ 20 µM
//
seq-text: HPLARTAKV
Kd: ≥ 20 µM

###

- measured-on: HLA-A*26:01
- procedure-text: IEDB peptide-MHC binding, purified MHC/direct/fluorescence; filed as Kd, often an IC50 or EC50 that approximates it; bounds were set here for any values at or beyond the usual limits of such assays
- measurement-parameters: source organism: Yersinia pestis

seq-text: YGIPFPGSL
measured-on: HLA-A*26:01
Kd: ≥ 20 µM

###

- measured-on: HLA-B*15:17
- procedure-text: IEDB peptide-MHC binding, purified MHC/direct/fluorescence; filed as Kd, often an IC50 or EC50 that approximates it; bounds were set here for any values at or beyond the usual limits of such assays
- measurement-parameters: source organism: Toxoplasma gondii

seq-text: LPPVVPPLI
Kd: ≥ 20 µM
